The measured values listed here are drawn from patent US20200316038A1.

Tested on: ARG1
PROTOCOL_NOTES: RNA-seq, ARG1 expression in compound-treated primary human hepatocytes
Format: cell-based
APPLIED_CONDITIONS: RNA-seq, primary human hepatocytes, compounds that significantly increase ARG1 expression
MEASURED_QUANTITY: ARG1 expression, Fold change (Log 2) vs untreated
Give the value, in units of Log 2, as a plain number.

>  <MOLECULE>
GDF10 (BMP3b): member of the BMP family and the TGF-B superfamily (protein, UniProt P55107 369-478, looked up) Growth/differentiation factor …: QWDEPRVCSRRYLKVDFADIGWNEWIISPKSFDAYYCAGACEFPMPKIVRPSNHATIQSIVRAVGIIPGIPEPCCVPDKMNSLGVLFLDENRNVVLKVYPNMSVDTCACR

>  <RESULT>
0.97

$$$$
>  <MOLECULE>
Anti mullerian hormone: member of the TGF-B gene family (protein, UniProt P03971 452-560, looked up) Muellerian-inhibiting factor: SAGATAADGPCALRELSVDLRAERSVLIPETYQANNCQGVCGWPQSDRNPRYGNHVVLLLKMQVRGAALARPPCCVPTAYAGKLLISLSEERISAHHVPNMVATECGCR

>  <RESULT>
2.06

$$$$

ARG1 expression, Fold change (Log 2) vs untreated lookup needed for Nodal: 13 kDa member of the TGF-B superfamily (protein, UniProt Q96S42 238-347, looked up) Nodal homolog: HHLPDRSQLCRKVKFQVDFNLIGWGSWIIYPKQYNAYRCEGECPNPVGEEFHPTNHAYIQSLLKRYQPHRVPSTCCAPVKTKPLSMLYVDNGRVLLDHHKDMIVEECGCL , thanks.
2.05

For GDF2 (BMP9): member of BMP family and the TGF-B superfamily (protein, UniProt Q9UK05 320-429, looked up) Growth/differentiation factor …: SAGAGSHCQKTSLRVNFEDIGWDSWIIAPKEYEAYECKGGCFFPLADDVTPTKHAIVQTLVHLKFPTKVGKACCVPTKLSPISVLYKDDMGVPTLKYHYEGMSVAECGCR , what is its reported ARG1 expression, Fold change (Log 2) vs untreated?
1.79
